tgt: T1, ECF17_1691
T1 chain: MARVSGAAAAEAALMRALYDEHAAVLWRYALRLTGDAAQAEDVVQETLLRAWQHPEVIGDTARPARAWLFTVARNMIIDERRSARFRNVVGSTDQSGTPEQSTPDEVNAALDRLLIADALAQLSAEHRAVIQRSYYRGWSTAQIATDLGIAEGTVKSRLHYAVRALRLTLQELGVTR
property.name: fold repression
Please reply with the value in numeric form only.

[
  {
    "binder": "AS16_973 (protein) MKTDDLIALLAAGEGPVPRHAVGRRMAVAALGGLTAALLLTITLYGVRSDITEVAQTPLFWGKVAFPTSLALIGLWLTSRLARPGGKGAAGWKMLGLPLLLVWCGAAVSIAGAPVDARADLLFGRTWRTCALNIALLSVPAFVTVFWALKGLAPTRLRLAGAAGGLLAGSSATVAYCLHCPEMGVPFWGVWYVLGMLVPTVLGAWWGPRMLRW",
    "property.name": "fold repression",
    "recorded.result": 0.852
  },
  {
    "binder": "AS35_3582 (protein) MNPQKHSASVAEEQMLAHFRAHAPQQPAPALDQAILAAARRQAAHVEPARSWWRRWLEASRRPRWQAAFASLLGVALVLGLVSHNVLDDAERQARPEVAFSDVPLRDGVAGAAAAKRAMRAPAAPAPLSGEMSEPPALLASYASSGEAPQLMAEAAPPAPAALADRPPAQAAQQAKVQAALAGDFVAQARGKAVAVKPEVLDEALGAVLALREQGKTEQAATQLAELQKRFPGENLVERLERLATIAASARKRP",
    "property.name": "fold repression",
    "recorded.result": 4.63
  },
  {
    "binder": "AS15_524 (protein) MNFGVEDMIEHVPMEDKRKGAAALDEARLRQQAIGVKLRQMFDEVVNEPVPDEFLAILRKAERPAGGE",
    "property.name": "fold repression",
    "recorded.result": 5.16
  }
]

Input line: Need fold repression of AS25_1643_cl43 (protein) MTTDSNFNDPCRRQFSRDLPQKMARHTNEATGAMDMVKRDRFELLSAYLGGEVTAAERRQVEDWPANDVAVQRLYSRLLKLRQGIRTMPIPTAQQSPETTAEQVFAKVNRRSRLAWKLGGAAVAACVIGAVTNWLPGRQTGIPQLAQQPQEQPTQAVTTPDALPMIALNNPVIEIPKAAVASPTKFIQPQPQLGEIPPDIN , thanks.
Output line: 1.92

Input line: Need fold repression of AS01_3473 (protein) MSNYDNAELLALWLEGKLTPKQRDEFEQRCIQDSQFAEQVDAAAMVKIGADDYSSSEVPQWNKAATFEPQQANNSGSWLSGVSLVTSALAIVLVLTGTQVTTSEGELRIRFGSGQSEQALVKLVDSKLDAFKQNQQDAFTLYAQTLQQQQSESASQLTNYLLSSSRKERREDFAELIKFVNQQRSDDQLFYARQLNQLQQDVYHDATGVALESIQQ , thanks.
Output line: 1.97

Input line: Need fold repression of AS27_4265 (protein) MTGHPDVAEIADLAEGLLPTTRTTEVRQHLESCELCADVYASLTEIQGLLGTLPAPAPMPDDVAARIDAALAAEPPLGIADGTRVSRETSTPADRPAGHARPSSTGPGRKDRRRGGRRRIAVLGAVAAAAAIGIGSVVVSSLTEDSSSGNTAREQQTAIADTFSEGRLKDRVTNLVADGSAENGSRTPRSFGMESENGGETAENHVFKQPTVPECIRKGIGRDDAVIATEPGVYKGREALLVVLPDATNDTQVTAYIVETACVDQPAVGKAKILLEHSYARS , thanks.
Output line: 2.82
